Counter-ions that a name gives are not always drawn.
Readout label: melting point

* O=C(NCc1cc(C(F)(F)F)cc(C(F)(F)F)c1)C(c1ccccc1)N1CCN(CCC2CCCCC2)CC1 (stereo not drawn) [Example 6] | 97 to 99 °C
* O=C(NCc1cc(C(F)(F)F)cc(C(F)(F)F)c1)C(c1cccc(Cl)c1)N1CCN(C2CCCCC2)CC1 (stereo not drawn) [Example 30] | > 240 °C
* CN(CCc1cc(C(F)(F)F)cc(C(F)(F)F)c1)C(=O)C(c1ccccc1)N1CCC(n2c(=O)[nH]c3ccccc32)CC1 (stereo not drawn) | 177 to 187 °C
* O=C(NCc1cc(C(F)(F)F)cc(C(F)(F)F)c1)C(c1ccc(Br)cc1)N1CCN(C2CCCCC2)CC1 (stereo not drawn) [Example 21] | 228 to 232 °C
* Cl.O=C(NCc1cc(C(F)(F)F)cc(C(F)(F)F)c1)C(c1ccccc1)N1CCC(N2C(=O)CCC2=O)CC1 (stereo not drawn) | 110 to 115 °C
* CN(CCc1cc(C(F)(F)F)cc(C(F)(F)F)c1)C(=O)C(c1ccccc1)N1CCC(C(N)=O)(c2ccccc2)CC1.Cl (stereo not drawn) | 127 to 137 °C
* CN(CCc1cc(C(F)(F)F)cc(C(F)(F)F)c1)C(=O)C(c1ccccc1)N1CCC(N2CCCC2)CC1 (stereo not drawn) [Example 52] | 133 to 143 °C
* CC(=O)N1CCN(C2CCN(C(C(=O)NCc3cc(C(F)(F)F)cc(C(F)(F)F)c3)c3ccccc3)CC2)C1=O (stereo not drawn) [Example 13] | 87 to 95 °C
* CN(CCc1cc(C(F)(F)F)cc(C(F)(F)F)c1)C(=O)C(c1ccccc1)N1CCN(CCc2ccccc2)CC1 (stereo not drawn) [Example 65] | 148 to 156 °C
* O=C(NCc1cc(C(F)(F)F)cc(C(F)(F)F)c1)C(c1ccc(Cl)c(Cl)c1)N1CCN(C2CCCCC2)CC1 (stereo not drawn) [Example 23] | 248 to 254 °C
* O=C(NCc1cc(C(F)(F)F)cc(C(F)(F)F)c1)C(c1ccccc1)N1CCN(C2CCCCC2)CC1 (racemic) [Example 1] | 124 to 129 °C
* O=C(NCCc1cc(C(F)(F)F)cc(C(F)(F)F)c1)C(c1ccccc1)N1CCN(C2CCCCC2)CC1 (stereo not drawn) [Example 3] | 235 to 238 °C
* CN(CCc1cc(C(F)(F)F)cc(C(F)(F)F)c1)C(=O)C(c1ccccc1)N1CCN(C2CCCCC2)CC1 (stereo not drawn) [Example 5] | 158 to 164 °C
* NC(=O)C1(N2CCCCC2)CCN(C(C(=O)NCc2cc(C(F)(F)F)cc(C(F)(F)F)c2)c2ccccc2)CC1 (stereo not drawn) [Example 11] | > 220 °C (dec.)
* CN(CCc1cc(C(F)(F)F)cc(C(F)(F)F)c1)C(=O)C(c1ccccc1)N1CCC(C#N)(c2ccccc2)CC1.Cl (stereo not drawn) [Example 75] | 91 to 98 °C
* CN(CCc1cc(C(F)(F)F)cc(C(F)(F)F)c1)C(=O)C(c1ccccc1)N1CCN(C2CCC2)CC1 (stereo not drawn) [Example 68] | 236 to 238 °C (dec.)
* O=C(NCCc1cc(C(F)(F)F)cc(C(F)(F)F)c1)C(c1ccccc1Br)N1CCN(C2CCCCC2)CC1 (stereo not drawn) [Example 62] | 210 to 218 °C
* O=C(NCc1cc(C(F)(F)F)cc(C(F)(F)F)c1)C(c1cc(C(F)(F)F)cc(C(F)(F)F)c1)N1CCN(C2CCCCC2)CC1 (stereo not drawn) [Example 24] | 210 °C
* CN(CCc1cc(C(F)(F)F)cc(C(F)(F)F)c1)C(=O)C(c1ccccc1)N1CCC(N2CCCCC2)CC1 (stereo not drawn) (as salt: hydrochloride) [Example 33] | > 240 °C
* O=C(NCc1cc(C(F)(F)F)cc(C(F)(F)F)c1)C(c1ccccc1Br)N1CCN(C2CCCCC2)CC1 (stereo not drawn) [Example 28] | 118 to 120 °C
* CN(CCc1cc(C(F)(F)F)cc(C(F)(F)F)c1)C(=O)C(c1ccccc1)N1CCC2(CC1)C(=O)NCN2c1ccccc1 (stereo not drawn) | 265 to 268 °C (dec.)
* O=C(NCc1cc(C(F)(F)F)cc(C(F)(F)F)c1)C(c1ccccc1)N1CCC(N(C(=O)c2ccccc2)c2ccccc2)CC1 (stereo not drawn) | 102 to 105 °C
* Cl.O=C(NCc1cc(C(F)(F)F)cc(C(F)(F)F)c1)C(c1ccccc1)N1CCC(N(C(=O)c2ccccc2)c2ccccn2)CC1 (stereo not drawn) | 145 to 151 °C
* O=C(NCCc1cc(C(F)(F)F)cc(C(F)(F)F)c1)C(c1cccc2ccccc12)N1CCN(C2CCCCC2)CC1 (stereo not drawn) [Example 38] | 155 to 172 °C
